- measurement-target: Sortase A (SrtA) (Staphylococcus aureus)
- Sequence (Q2FV99 60-206 limits assumed): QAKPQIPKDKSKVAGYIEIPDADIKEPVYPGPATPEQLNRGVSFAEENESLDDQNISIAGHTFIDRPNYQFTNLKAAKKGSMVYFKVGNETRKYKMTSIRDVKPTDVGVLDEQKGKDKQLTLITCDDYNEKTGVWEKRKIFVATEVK
pKd: −log10 of the molar value.
reported-metric: pKd

compound | reported-metric | recorded-measurement
Oc1cc(O)c2cc(O)c(-c3ccc(O)c(O)c3)[o+]c2c1 [cyanidin chloride] | pKd | 4.86
